I'd be grateful if you could share measured growth for these entries.
Test system: OVCAR-3 ovarian
Assay: NCI-60 one-dose screen, 48 h (100 = growth as untreated, 0 = no growth, -100 = all killed)
Settings: 10 µM
About 83,000 compounds went through this panel and 20% of them were active in at least one assay; those are over-represented in the sample as a whole.
Answers are plain numbers, in %.

Reference set, count: 3
INSERT INTO results (compound_string, observed_measurement) VALUES
  ('COc1ccc(-c2nc3ncccn3c2-c2nnc(-c3ccsc3C)o2)cc1', 55.4),
  ('O=C(CSSCC(=O)c1ccc(Cl)cc1)c1ccc(Cl)cc1', 78.4),
  ('c1ccc(CP(Cc2ccccc2)c2ccccc2)cc1', 112);

Now, please, on to the next molecule.
stdin: Tell me reported growth for "C[C@]12CC[C@@H]3c4ccc(O)cc4C[C@@H](O)[C@H]3[C@@H]1CC[C@@H]2O" , tested with OVCAR-3 ovarian.
stdout: 114

Data provenance: PubChem BioAssay (NCI)
